assay.name: clinical
experimental.parameters: human, in vivo, 1120 mg, Vss
quantity.measured: Vd (L)
Give bare numbers, in L.

Given the entry CN[C@H]1C(=O)N[C@@H]2Cc3ccc(cc3)Oc3cc4cc(c3O[C@@H]3O[C@H](C(=O)O)[C@@H](O)[C@H](O)[C@H]3NC(=O)CCCCCCCCC(C)C)Oc3ccc(cc3Cl)[C@@H](O)[C@@H]3NC(=O)[C@H](NC(=O)[C@@H]4NC(=O)[C@@H](NC2=O)c2cc(cc(O)c2Cl)Oc2cc1ccc2O)c1ccc(O)c(c1)-c1c(O[C@H]2O[C@H](CO)[C@@H](O)[C@H](O)[C@@H]2O)cc(O)cc1[C@@H](C(=O)NCCCN(C)C)NC3=O [Dalbavancin] , report its measured Vd.
8.49
